Entry source: patent EP4722195A1

experiment: Average particle size and polydispersity index of lipid nanoparticles (dynamic light scattering); assay type: physicochemical; conditions: Table 5; EGFP mRNA-loaded lipid nanoparticles; TxT/DSPC/chol/PEG-DMG=50/3/47/1.5 (mol%); total flow rate 3.0 mL/min
Assay Endpoint: ζ-average particle size (nm)

{"Molecule": "CCCCCCCCC(CCCCCC)CNC(=O)CCCC(=O)OCC(COC(=O)CCCC(=O)NCC(CCCCCC)CCCCCCCC)(COC(=O)CCCC(=O)NCC(CCCCCC)CCCCCCCC)NC(=O)CCN1CCCCC1 (stereo not drawn) [TxT-5-5A16β]", "Readout Units": "nm", "ζ-average particle size": 101.1}
{"Molecule": "CCCCCCC(CCCCCC)COC(=O)CCCC(=O)OCC(COC(=O)CCCC(=O)OCC(CCCCCC)CCCCCC)(COC(=O)CCCC(=O)OCC(CCCCCC)CCCCCC)NC(=O)CCN1CCCCC1 [TxT-5-5E14]", "Readout Units": "nm", "ζ-average particle size": 103.3}
{"Molecule": "CCCCCCN(CCCCCC)C(=O)CCCC(=O)OCC(COC(=O)CCCC(=O)N(CCCCCC)CCCCCC)(COC(=O)CCCC(=O)N(CCCCCC)CCCCCC)NC(=O)CCN1CCCCC1 [TxT-5-5A12]", "Readout Units": "nm", "ζ-average particle size": 114.4}

====

assay: Average particle size and polydispersity index of lipid nanoparticles (dynamic light scattering); format: physicochemical; conditions: Table 5; EGFP mRNA-loaded lipid nanoparticles; TxT/DSPC/chol/PEG-DMG=50/3/47/1.5 (mol%); total flow rate 3.0 mL/min
Assay Endpoint: ζ-average particle size (nm)

{"Compound": "CCCCCCCCCCN(CCCCCCCCCC)C(=O)CCC(=O)OCC(COC(=O)CCC(=O)N(CCCCCCCCCC)CCCCCCCCCC)(COC(=O)CCC(=O)N(CCCCCCCCCC)CCCCCCCCCC)NC(=O)CCN1CCCCC1 [TxT-5-4A20]", "Assay Endpoint": "ζ-average particle size", "Value Observed": 140.9}
{"Compound": "CCCCCCCN(CCCCCCC)C(=O)CCCC(=O)OCC(COC(=O)CCCC(=O)N(CCCCCCC)CCCCCCC)(COC(=O)CCCC(=O)N(CCCCCCC)CCCCCCC)NC(=O)CCN1CCCCC1 [TxT-5-5A14]", "Assay Endpoint": "ζ-average particle size", "Value Observed": 106.0}
{"Compound": "CCCCCCCCN(CCCCCCCC)C(=O)CCCC(=O)OCC(COC(=O)CCCC(=O)N(CCCCCCCC)CCCCCCCC)(COC(=O)CCCC(=O)N(CCCCCCCC)CCCCCCCC)NC(=O)CCN1CCCCC1 [TxT-5-5A16]", "Assay Endpoint": "ζ-average particle size", "Value Observed": 132.4}
{"Compound": "CCCCC(CC)CN(CC(CC)CCCC)C(=O)CCCC(=O)OCC(COC(=O)CCCC(=O)N(CC(CC)CCCC)CC(CC)CCCC)(COC(=O)CCCC(=O)N(CC(CC)CCCC)CC(CC)CCCC)NC(=O)CCN1CCCCC1 (centres unmarked) [TxT-5-5A16b]", "Assay Endpoint": "ζ-average particle size", "Value Observed": 81.4}
{"Compound": "CCCCCCC(CCCC)CNC(=O)CCCC(=O)OCC(COC(=O)CCCC(=O)NCC(CCCC)CCCCCC)(COC(=O)CCCC(=O)NCC(CCCC)CCCCCC)NC(=O)CCN1CCCCC1 (stereo not drawn) [TxT-5-5A12β]", "Assay Endpoint": "ζ-average particle size", "Value Observed": 104.0}
